These data points were gathered from patent US5750558A.

test_target: recombinant human PGHS-2 (Homo sapiens)
Sequence (P35354 18-604): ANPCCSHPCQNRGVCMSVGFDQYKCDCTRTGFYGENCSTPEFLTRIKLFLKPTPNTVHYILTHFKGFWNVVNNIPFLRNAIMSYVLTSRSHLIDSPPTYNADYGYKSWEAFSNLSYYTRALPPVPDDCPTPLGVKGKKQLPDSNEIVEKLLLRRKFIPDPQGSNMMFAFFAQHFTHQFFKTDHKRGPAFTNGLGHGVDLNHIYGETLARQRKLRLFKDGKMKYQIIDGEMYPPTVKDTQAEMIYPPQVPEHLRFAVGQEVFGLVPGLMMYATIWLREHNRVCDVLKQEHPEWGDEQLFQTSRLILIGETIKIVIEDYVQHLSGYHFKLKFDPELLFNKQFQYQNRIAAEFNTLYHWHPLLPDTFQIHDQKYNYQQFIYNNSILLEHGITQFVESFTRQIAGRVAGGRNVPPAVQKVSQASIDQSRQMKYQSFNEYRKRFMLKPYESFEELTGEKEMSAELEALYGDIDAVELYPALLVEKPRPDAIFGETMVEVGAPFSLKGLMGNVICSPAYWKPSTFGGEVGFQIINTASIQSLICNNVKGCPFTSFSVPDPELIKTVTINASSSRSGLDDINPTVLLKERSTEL
protocol: Inhibition of prostaglandin biosynthesis in recombinant human PGHS-2 enzyme assay (PGE2 by EIA)
Entries and their measured pIC50 follow.
Lab note: report pIC50 as minus log10 of the concentration in molar units, number only.

{"molecule": "COc1ccc2c(c1)c(CC=NOCC(=O)OCC1COC(C)(C)O1)c(C)n2C(=O)c1ccc(Cl)cc1 (centres unmarked)", "reported_property": "pIC50", "val": 8.52}

pIC50 lookup needed for COc1ccc2c(c1)c(CC=NOCC(=O)O)c(C)n2C(=O)c1ccc(Cl)cc1 , thanks.
6.14
